target: Ba/F3-FGFR4-transfected cells (Homo sapiens, UniProt P22455); assay: Ba/F3-FGFR4 cellular proliferation assay, Alamar Blue; format: cell-based
Sequence (P22455 whole entry, change not shown): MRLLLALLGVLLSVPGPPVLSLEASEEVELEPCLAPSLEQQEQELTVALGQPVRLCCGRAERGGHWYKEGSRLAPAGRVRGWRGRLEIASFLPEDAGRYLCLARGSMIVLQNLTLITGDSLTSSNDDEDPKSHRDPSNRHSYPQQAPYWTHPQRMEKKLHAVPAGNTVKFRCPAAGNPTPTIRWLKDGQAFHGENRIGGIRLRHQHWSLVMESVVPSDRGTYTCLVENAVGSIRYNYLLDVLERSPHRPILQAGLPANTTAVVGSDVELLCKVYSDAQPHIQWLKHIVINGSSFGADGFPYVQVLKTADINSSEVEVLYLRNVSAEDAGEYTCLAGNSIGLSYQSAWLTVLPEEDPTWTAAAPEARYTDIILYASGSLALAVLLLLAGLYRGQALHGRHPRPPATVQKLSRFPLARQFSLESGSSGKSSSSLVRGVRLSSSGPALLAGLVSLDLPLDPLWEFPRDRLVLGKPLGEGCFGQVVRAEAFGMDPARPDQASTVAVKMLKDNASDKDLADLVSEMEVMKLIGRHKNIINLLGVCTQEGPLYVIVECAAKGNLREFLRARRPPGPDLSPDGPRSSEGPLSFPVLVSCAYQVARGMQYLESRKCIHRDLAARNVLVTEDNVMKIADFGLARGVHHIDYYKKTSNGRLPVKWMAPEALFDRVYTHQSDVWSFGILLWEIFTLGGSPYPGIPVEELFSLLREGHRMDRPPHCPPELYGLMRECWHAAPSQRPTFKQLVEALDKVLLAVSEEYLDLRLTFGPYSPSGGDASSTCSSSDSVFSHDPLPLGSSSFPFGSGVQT

compound	assayedSystem	BAF3-FGFR4 pIC50
COc1cc(OC)cc(N(CCCNCC(F)(F)F)c2ccc3ncc(-c4ccnc(Cl)c4)nc3c2)c1 [Compound 145]	Ba/F3-FGFR4-transfected cells (Homo sapiens, UniProt P22455)	<5.35
COc1cc(OC)cc(N(CC2CC2)c2ccc3ncc(-n4cccn4)nc3c2)c1 [Compound 95]	Ba/F3-FGFR4-transfected cells (Homo sapiens, UniProt P22455)	<5
COc1cc(OC)cc(N(CCO)c2ccc3ncc(-c4ccnc(C(=O)NCCCCCO)c4)nc3c2)c1 [Compound 139]	Ba/F3-FGFR4-transfected cells (Homo sapiens, UniProt P22455)	<5
CNC(=O)c1cc(-c2cnc3ccc(N(CCCNCC(F)(F)F)c4cc(OC)cc(OC)c4)cc3n2)ccn1 [Compound 122]	Ba/F3-FGFR4-transfected cells (Homo sapiens, UniProt P22455)	~5.1
COc1cc(OC)cc(N(CCCO)c2ccc3ncc(-c4ccc(C)nc4)nc3c2)c1 [Compound 115]	Ba/F3-FGFR4-transfected cells (Homo sapiens, UniProt P22455)	5.7
COc1cc(OC)cc(N(CCO)c2ccc3ncc(/C(C)=N/OC(C)(C)C)nc3c2)c1 [Compound 171]	Ba/F3-FGFR4-transfected cells (Homo sapiens, UniProt P22455)	<5

----------
Biological target: FGFR2 (h) (Homo sapiens, UniProt P21802)
Sequence (P21802 22-821): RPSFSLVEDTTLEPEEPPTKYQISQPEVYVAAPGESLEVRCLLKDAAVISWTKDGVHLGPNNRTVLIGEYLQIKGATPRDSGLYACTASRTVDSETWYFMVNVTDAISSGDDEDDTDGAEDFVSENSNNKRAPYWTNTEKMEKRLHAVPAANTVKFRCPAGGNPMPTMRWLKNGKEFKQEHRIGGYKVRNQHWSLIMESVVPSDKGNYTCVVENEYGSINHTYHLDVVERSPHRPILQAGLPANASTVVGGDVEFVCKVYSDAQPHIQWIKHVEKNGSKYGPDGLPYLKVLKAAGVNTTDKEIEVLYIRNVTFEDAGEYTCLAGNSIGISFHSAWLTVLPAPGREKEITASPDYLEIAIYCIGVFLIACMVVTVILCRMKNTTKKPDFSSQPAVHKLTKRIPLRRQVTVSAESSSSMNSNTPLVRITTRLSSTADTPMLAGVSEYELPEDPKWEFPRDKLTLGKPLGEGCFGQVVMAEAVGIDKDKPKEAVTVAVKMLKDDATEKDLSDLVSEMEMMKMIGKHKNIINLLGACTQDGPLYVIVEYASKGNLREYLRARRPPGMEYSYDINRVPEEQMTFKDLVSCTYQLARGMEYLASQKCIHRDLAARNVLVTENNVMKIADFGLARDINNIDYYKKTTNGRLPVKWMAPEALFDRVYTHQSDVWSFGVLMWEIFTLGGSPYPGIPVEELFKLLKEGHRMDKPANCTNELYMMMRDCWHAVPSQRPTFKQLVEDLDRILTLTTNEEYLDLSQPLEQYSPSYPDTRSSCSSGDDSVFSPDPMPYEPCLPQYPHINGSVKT
Experiment: FGFR2 (enzymatic assay), TR-FRET
Format: biochemical
Settings: read-out: FGFR 2 pIC50 (converted)
Protocol: In a final reaction volume of 30 μL, FGFR2 (h) (150 ng/ml) was incubated with 50 mM HEPES pH 7.5, 6 mM MnCl2, 1 mM DTT, 0.1 mM Na3VO4, 0.01% Triton-X-100, 500 nM Btn-Flt3 and 0.4 μM ATP in the presence of compound (1% DMSO final). […] Time-Resolved Fluorescence Resonance Energy Transfer (TR-FRET) signal (ex340 nm. Em 620 nm, em 655 nm) was measured afterwards and results are expressed in (Relative Fluorescence Units).

compound	IC50
COc1cc(OC)cc(N(CC2CC2)c2ccc3ncc(-c4nnn(C)n4)nc3c2)c1	229 nM
COc1cc(OC)cc(N(CC2CC2)c2ccc3ncc(-c4cn[nH]n4)nc3c2)c1	166 nM
CO/N=C(\C)c1cnc2ccc(N(CCO)c3cc(OC)cc(OC)c3)cc2n1	115 nM
COCC(O)CN(c1cc(OC)cc(OC)c1)c1ccc2ncc(-c3cccnc3)nc2c1 (single isomer, unassigned) [Compound 47]	17.4 nM
COc1cc(OC)cc(N(CCCO)c2ccc3ncc(-c4ccnc(F)c4)nc3c2)c1	25.1 nM
CNC(=O)c1cc(-c2cnc3ccc(N(CCCNCC(F)(F)F)c4cc(OC)cc(OC)c4)cc3n2)ccn1	46.8 nM
COc1cc(OC)cc(N(CC2CC2)c2ccc3ncc(-c4cn(CCN5CCOCC5)nn4)nc3c2)c1	25.1 nM
COc1cc(OC)cc(N(CC2CC2)c2ccc3ncc(C#Cc4cncn4C)nc3c2)c1	95.5 nM
COc1cc(OC)cc(N(CCNC(C)C)c2ccc3ncc(-c4ccnn4C4CCCCO4)nc3c2)c1 (stereo not shown)	7.41 nM
COCC(O)CN(c1cc(OC)cc(OC)c1)c1ccc2ncc(-c3cccnc3)nc2c1 (single isomer, unassigned) [Compound 46]	12 nM
COc1cc(OC)cc(N(CC2CC2)c2ccc3ncc(C(=O)NCCN4CCOCC4)nc3c2)c1	~912 nM
COc1cc(OC)cc(N(CCNC(C)C)c2ccc3ncc(-c4ccncc4)nc3c2)c1	2.45 nM
COc1cc(OC)cc(N(CCCO)c2ccc3ncc(-c4ccc(N5CCNCC5)nc4)nc3c2)c1	4.07 nM
COc1cc(OC)cc(N(CC#Cc2ncccc2OC)c2ccc3ncc(-c4cccnc4)nc3c2)c1	81.3 nM
COc1cc(OC)cc(N(CC2CC2)c2ccc3ncc(-n4cncn4)nc3c2)c1	~708 nM
COc1cc(OC)cc(N(CCO)c2ccc3ncc(/C(C)=N/OC(C)(C)C)nc3c2)c1	724 nM
COc1cc(OC)cc(N(CC2CC2)c2ccc3ncc(-n4nccc4C)nc3c2)c1	> 1000 nM
COc1cc(OC)cc(N(CC2CC2)c2ccc3ncc(C(=O)NCc4ccc(F)cc4)nc3c2)c1	> 1000 nM
COc1cc(OC)cc(N(CCO)c2ccc3ncc(-c4ccnc(C(=O)NCCCCCN)c4)nc3c2)c1	~31.6 nM

Values from patent US10052320B2
